Test: Absorption property of the compound in chloroform assessed as hypsochromic shift by measuring maximum absorption wavelength by UV-visible spectrophotometric method
Assay type: physicochemical

{"columns": ["mol smiles", "Activity [nm]"],
 "data": [
  ["COc1ccc(C2=[N+]3C(=Nc4c(-c5ccccc5)c5c(n4[B-]3(F)F)-c3ccc(OC)cc3CC5)C(c3ccccc3)=C2Br)cc1", 692],
  ["COc1ccc2c(c1)CCc1c(-c3ccccc3)c3n(c1-2)[B-](F)(F)[N+]1=C(c2ccc(C)s2)C(Br)=C(c2ccccc2)C1=N3", 714],
  ["COc1ccc(C2=[N+]3C(=Nc4c(-c5ccccc5)c5c(n4[B-]3(F)F)-c3ccc(OC)cc3CC5)C(c3ccccc3)=C2I)cc1", 689],
  ["COc1ccc2c(c1)CCc1c(-c3ccccc3)c3n(c1-2)[B-](F)(F)[N+]1=C(c2cccs2)C(I)=C(c2ccccc2)C1=N3", 695],
  ["COc1ccc(C2=[N+]3C(=Nc4c(-c5ccccc5)c(Br)c(-c5ccc(OC)cc5)n4[B-]3(F)F)C(c3ccccc3)=C2I)cc1", 679],
  ["COc1ccc(C2=[N+]3C(=Nc4c(-c5ccccc5)c(I)c(-c5ccc(OC)cc5)n4[B-]3(F)F)C(c3ccccc3)=C2I)cc1", 679],
  ["COc1ccc(C2=[N+]3C(=Nc4c(-c5ccccc5)cc(-c5ccc(OC)cc5)n4[B-]3(F)F)C(c3ccccc3)=C2Br)cc1", 679],
  ["COc1ccc(C2=[N+]3C(=Nc4c(-c5ccccc5)c(Br)c(-c5ccc(OC)cc5)n4[B-]3(F)F)C(c3ccccc3)=C2Br)cc1", 679],
  ["COc1ccc2c(c1)CCc1c(-c3ccccc3)c3n(c1-2)[B-](F)(F)[N+]1=C(c2ccc(C)cc2)C(Br)=C(c2ccccc2)C1=N3", 682]
]}

====

Experiment: Emission property of the compound in chloroform assessed as maximum emission wavelength by fluorescence spectrophotometric method
Assay type: physicochemical
Overview of reported Activity across a group of compounds:
measured parameter: Activity (nm)

{"columns": ["mol smiles", "unit annotation", "number"],
 "data": [
  ["COc1ccc(C2=[N+]3C(=Nc4c(-c5ccccc5)cc(-c5ccc(OC)cc5)n4[B-]3(F)F)C(c3ccccc3)=C2I)cc1", "nm", 721],
  ["COc1ccc(C2=[N+]3C(=Nc4c(-c5ccccc5)c5c(n4[B-]3(F)F)-c3ccc(OC)cc3CC5)C(c3ccccc3)=C2Br)cc1", "nm", 724],
  ["COc1ccc2c(c1)CCc1c(-c3ccccc3)c3n(c1-2)[B-](F)(F)[N+]1=C(c2ccc(C)s2)C(Br)=C(c2ccccc2)C1=N3", "nm", 753],
  ["Cc1ccc(C2=[N+]3C(=Nc4c(-c5ccccc5)c(I)c(-c5ccc(C)cc5)n4[B-]3(F)F)C(c3ccccc3)=C2I)cc1", "nm", 688],
  ["COc1ccc2c(c1)CCc1c(-c3ccccc3)c3n(c1-2)[B-](F)(F)[N+]1=C(c2ccc(C)cc2)C(Br)=C(c2ccccc2)C1=N3", "nm", 709],
  ["COc1ccc2c(c1)CCc1c(-c3ccccc3)c3n(c1-2)[B-](F)(F)[N+]1=C(c2ccc(C)s2)C(I)=C(c2ccccc2)C1=N3", "nm", 756],
  ["Cc1ccc(C2=[N+]3C(=Nc4c(-c5ccccc5)c(Br)c(-c5ccc(C)cc5)n4[B-]3(F)F)C(c3ccccc3)=C2Br)cc1", "nm", 685],
  ["COc1ccc2c(c1)CCc1c(-c3ccccc3)c3n(c1-2)[B-](F)(F)[N+]1=C(c2ccc(C)cc2)C(I)=C(c2ccccc2)C1=N3", "nm", 709]
]}
